Provenance of the data: ChEMBL document CHEMBL2434831

// values below are reported Papp A→B
- ASSAY: Permeability from apical to basolateral side in human Caco2 cells
- Type: ADME, cell-based
- CONDITION LABEL: Caco-2, read-out: permeability
METRIC NAME: Papp A→B (×10⁻⁶ cm/s)

smiles_entry=CCCS(=O)(=O)Nc1ccc(F)c(C(=O)Nc2cnc3[nH]ncc3c2)c1F metric_name="Papp A→B" recorded_measurement=1.3
smiles_entry=CCCS(=O)(=O)Nc1ccc(F)c(C(=O)Nc2cnc3ccnn3c2)c1F metric_name="Papp A→B" recorded_measurement=11.4
smiles_entry=CCCS(=O)(=O)Nc1ccc(F)c(C(=O)Nc2cnc3[nH]c(-c4ccc(Br)cc4)nc3c2)c1F metric_name="Papp A→B" recorded_measurement=1.3
smiles_entry=CCCS(=O)(=O)Nc1ccc(F)c(C(=O)Nc2cnc3[nH]c(-c4ccc(C(F)(F)F)cc4)nc3c2)c1F metric_name="Papp A→B" recorded_measurement=1
smiles_entry=CCCS(=O)(=O)Nc1ccc(F)c(C(=O)Nc2cnc3[nH]ccc3c2)c1F metric_name="Papp A→B" recorded_measurement=7.3
smiles_entry=CCCS(=O)(=O)Nc1ccc(F)c(C(=O)Nc2cnc3[nH]cnc3c2)c1F metric_name="Papp A→B" recorded_measurement=0.6
smiles_entry=CCCS(=O)(=O)Nc1ccc(F)c(C(=O)Nc2cnc3[nH]c(-c4ccc(Cl)c(Cl)c4)nc3c2)c1F metric_name="Papp A→B" recorded_measurement=2
smiles_entry=CCCS(=O)(=O)Nc1ccc(F)c(C(=O)Nc2cnc3[nH]c(-c4ccccc4)cc3c2)c1F metric_name="Papp A→B" recorded_measurement=5.6
smiles_entry=CCCS(=O)(=O)Nc1ccc(F)c(C(=O)Nc2cnc3cc(-c4ccccc4)nn3c2)c1F metric_name="Papp A→B" recorded_measurement=15.6
smiles_entry=CCCS(=O)(=O)Nc1ccc(F)c(C(=O)Nc2cnc3[nH]c(-c4ccc(C)cc4)nc3c2)c1F metric_name="Papp A→B" recorded_measurement=2.6

---

- Tested on: Serine/threonine-protein kinase B-raf (Homo sapiens), P15056 [V600E]
- Sequence (P15056 whole entry V600E): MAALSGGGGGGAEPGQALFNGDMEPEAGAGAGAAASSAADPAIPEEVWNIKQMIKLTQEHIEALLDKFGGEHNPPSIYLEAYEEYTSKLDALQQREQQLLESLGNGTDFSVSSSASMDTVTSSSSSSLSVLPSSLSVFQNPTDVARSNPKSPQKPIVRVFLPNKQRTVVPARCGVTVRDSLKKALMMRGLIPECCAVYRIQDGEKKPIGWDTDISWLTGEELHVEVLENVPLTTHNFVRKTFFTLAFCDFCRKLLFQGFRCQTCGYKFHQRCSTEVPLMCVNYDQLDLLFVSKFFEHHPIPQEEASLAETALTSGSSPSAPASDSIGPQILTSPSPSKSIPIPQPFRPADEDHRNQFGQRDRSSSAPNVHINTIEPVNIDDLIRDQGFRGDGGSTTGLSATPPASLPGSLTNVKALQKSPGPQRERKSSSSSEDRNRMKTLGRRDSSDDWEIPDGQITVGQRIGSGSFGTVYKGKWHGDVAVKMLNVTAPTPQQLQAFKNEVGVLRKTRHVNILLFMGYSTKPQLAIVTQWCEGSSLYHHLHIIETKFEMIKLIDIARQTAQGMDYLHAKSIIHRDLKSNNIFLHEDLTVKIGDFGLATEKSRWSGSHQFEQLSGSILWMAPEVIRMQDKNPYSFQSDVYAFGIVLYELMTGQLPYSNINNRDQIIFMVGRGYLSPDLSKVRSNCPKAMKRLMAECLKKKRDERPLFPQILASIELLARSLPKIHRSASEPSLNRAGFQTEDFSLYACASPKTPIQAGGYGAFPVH
- ASSAY: Ratio of IC50 for B-Raf V600E mutant in human Malme-3M cells to IC50 for full length B-Raf V600E mutant (unknown origin)
- Assay type: cell-based
METRIC NAME: Ratio IC50

molecule=CCCS(=O)(=O)Nc1ccc(F)c(C(=O)Nc2cnc3[nH]c(CC)nc3c2)c1F assayed_system="Serine/threonine-protein kinase B-raf (Homo sapiens), P15056 [V600E]" value_modifier== recorded_measurement=30
molecule=CCCS(=O)(=O)Nc1ccc(F)c(C(=O)Nc2cnc3[nH]c(-c4ccc(OC(F)(F)F)cc4)nc3c2)c1F assayed_system="Serine/threonine-protein kinase B-raf (Homo sapiens), P15056 [V600E]" value_modifier== recorded_measurement=34
molecule=CCCS(=O)(=O)Nc1ccc(F)c(C(=O)Nc2cnc3[nH]c(-c4ccc(Cl)cc4)nc3c2)c1F assayed_system="Serine/threonine-protein kinase B-raf (Homo sapiens), P15056 [V600E]" value_modifier== recorded_measurement=71
molecule=CCCS(=O)(=O)Nc1ccc(F)c(C(=O)Nc2cnc3[nH]c(-c4ccc(OC)cc4)nc3c2)c1F assayed_system="Serine/threonine-protein kinase B-raf (Homo sapiens), P15056 [V600E]" value_modifier== recorded_measurement=125
molecule=CCCS(=O)(=O)Nc1ccc(F)c(C(=O)Nc2cnc3[nH]c(C(C)C)nc3c2)c1F assayed_system="Serine/threonine-protein kinase B-raf (Homo sapiens), P15056 [V600E]" value_modifier== recorded_measurement=29
molecule=CCCS(=O)(=O)Nc1ccc(F)c(C(=O)Nc2cnc3[nH]c(-c4ccc(F)c(F)c4)nc3c2)c1F assayed_system="Serine/threonine-protein kinase B-raf (Homo sapiens), P15056 [V600E]" value_modifier== recorded_measurement=57
molecule=CCCS(=O)(=O)Nc1ccc(F)c(C(=O)Nc2cnc3[nH]c(-c4ccc(C#N)cc4)nc3c2)c1F assayed_system="Serine/threonine-protein kinase B-raf (Homo sapiens), P15056 [V600E]" value_modifier== recorded_measurement=88
molecule=CCCS(=O)(=O)Nc1ccc(F)c(C(=O)Nc2cnc3[nH]c(-c4ccc(Br)cc4)nc3c2)c1F assayed_system="Serine/threonine-protein kinase B-raf (Homo sapiens), P15056 [V600E]" value_modifier== recorded_measurement=28
molecule=CCCS(=O)(=O)Nc1ccc(F)c(C(=O)Nc2cnc3[nH]c(-c4ccc(C(F)(F)F)cc4)nc3c2)c1F assayed_system="Serine/threonine-protein kinase B-raf (Homo sapiens), P15056 [V600E]" value_modifier== recorded_measurement=62
molecule=CCCS(=O)(=O)Nc1ccc(F)c(C(=O)Nc2cnc3[nH]c(-c4ccc(Cl)c(Cl)c4)nc3c2)c1F assayed_system="Serine/threonine-protein kinase B-raf (Homo sapiens), P15056 [V600E]" value_modifier== recorded_measurement=54
molecule=CCCS(=O)(=O)Nc1ccc(F)c(C(=O)Nc2cnc3[nH]c(-c4ccccc4F)nc3c2)c1F assayed_system="Serine/threonine-protein kinase B-raf (Homo sapiens), P15056 [V600E]" value_modifier== recorded_measurement=21
molecule=CCCS(=O)(=O)Nc1ccc(F)c(C(=O)Nc2cnc3[nH]c(-c4ccccc4Cl)nc3c2)c1F assayed_system="Serine/threonine-protein kinase B-raf (Homo sapiens), P15056 [V600E]" value_modifier== recorded_measurement=21
molecule=CCCS(=O)(=O)Nc1ccc(F)c(C(=O)Nc2cnc3[nH]c(-c4cccc(Br)c4)nc3c2)c1F assayed_system="Serine/threonine-protein kinase B-raf (Homo sapiens), P15056 [V600E]" value_modifier== recorded_measurement=226
molecule="CCCS(=O)(=O)Nc1ccc(F)c(C(=O)Nc2cnc3[nH]c(C4CCCNC4)nc3c2)c1F (stereo not given)" assayed_system="Serine/threonine-protein kinase B-raf (Homo sapiens), P15056 [V600E]" value_modifier=> recorded_measurement=60
molecule=CCCS(=O)(=O)Nc1ccc(F)c(C(=O)Nc2cnc3[nH]c(-c4ccc(S(C)(=O)=O)cc4)nc3c2)c1F assayed_system="Serine/threonine-protein kinase B-raf (Homo sapiens), P15056 [V600E]" value_modifier== recorded_measurement=527
molecule=CCCS(=O)(=O)Nc1ccc(F)c(C(=O)Nc2cnc3cc(-c4ccc(F)cc4)nn3c2)c1F assayed_system="Serine/threonine-protein kinase B-raf (Homo sapiens), P15056 [V600E]" value_modifier== recorded_measurement=4.9
molecule=CCCS(=O)(=O)Nc1ccc(F)c(C(=O)Nc2cnc3[nH]c(-c4ccc(F)cc4)nc3c2)c1F assayed_system="Serine/threonine-protein kinase B-raf (Homo sapiens), P15056 [V600E]" value_modifier== recorded_measurement=240
molecule=CCCS(=O)(=O)Nc1ccc(F)c(C(=O)Nc2cnc3[nH]c(C)nc3c2)c1F assayed_system="Serine/threonine-protein kinase B-raf (Homo sapiens), P15056 [V600E]" value_modifier== recorded_measurement=43
molecule=CCCS(=O)(=O)Nc1ccc(F)c(C(=O)Nc2cnc3[nH]c(-c4cccnc4)nc3c2)c1F assayed_system="Serine/threonine-protein kinase B-raf (Homo sapiens), P15056 [V600E]" value_modifier== recorded_measurement=375
molecule=CCCS(=O)(=O)Nc1ccc(F)c(C(=O)Nc2cnc3[nH]cnc3c2)c1F assayed_system="Serine/threonine-protein kinase B-raf (Homo sapiens), P15056 [V600E]" value_modifier== recorded_measurement=39
molecule=CCCS(=O)(=O)Nc1ccc(F)c(C(=O)Nc2cnc3cc(-c4ccc(Cl)cc4)nn3c2)c1F assayed_system="Serine/threonine-protein kinase B-raf (Homo sapiens), P15056 [V600E]" value_modifier== recorded_measurement=11
molecule=CCCS(=O)(=O)Nc1ccc(F)c(C(=O)Nc2cnc3[nH]c(-c4ccc(Cl)cc4)cc3c2)c1F assayed_system="Serine/threonine-protein kinase B-raf (Homo sapiens), P15056 [V600E]" value_modifier== recorded_measurement=8.4
molecule=CCCS(=O)(=O)Nc1ccc(F)c(C(=O)Nc2cnc3[nH]c(-c4cccc(OC)c4)nc3c2)c1F assayed_system="Serine/threonine-protein kinase B-raf (Homo sapiens), P15056 [V600E]" value_modifier== recorded_measurement=219
molecule=CCCS(=O)(=O)Nc1ccc(F)c(C(=O)Nc2cnc3[nH]c(-c4ccc(C)cc4)nc3c2)c1F assayed_system="Serine/threonine-protein kinase B-raf (Homo sapiens), P15056 [V600E]" value_modifier== recorded_measurement=38
molecule=CCCS(=O)(=O)Nc1ccc(F)c(C(=O)Nc2cnc3[nH]c(-c4cccc(Cl)c4)nc3c2)c1F assayed_system="Serine/threonine-protein kinase B-raf (Homo sapiens), P15056 [V600E]" value_modifier== recorded_measurement=62
molecule=CCCS(=O)(=O)Nc1ccc(F)c(C(=O)Nc2cnc3[nH]c(C4CCNCC4)nc3c2)c1F assayed_system="Serine/threonine-protein kinase B-raf (Homo sapiens), P15056 [V600E]" value_modifier=> recorded_measurement=93
molecule=CCCS(=O)(=O)Nc1ccc(F)c(C(=O)Nc2cnc3[nH]c(-c4ccc(F)cc4)cc3c2)c1F assayed_system="Serine/threonine-protein kinase B-raf (Homo sapiens), P15056 [V600E]" value_modifier== recorded_measurement=18
molecule=CCCS(=O)(=O)Nc1ccc(F)c(C(=O)Nc2cnc3[nH]c(-c4ccccc4Br)nc3c2)c1F assayed_system="Serine/threonine-protein kinase B-raf (Homo sapiens), P15056 [V600E]" value_modifier== recorded_measurement=35
molecule=CCCS(=O)(=O)Nc1ccc(F)c(C(=O)Nc2cnc3[nH]c(-c4ccccc4)cc3c2)c1F assayed_system="Serine/threonine-protein kinase B-raf (Homo sapiens), P15056 [V600E]" value_modifier== recorded_measurement=32
molecule=CCCS(=O)(=O)Nc1ccc(F)c(C(=O)Nc2cnc3[nH]c(C4CCC4)nc3c2)c1F assayed_system="Serine/threonine-protein kinase B-raf (Homo sapiens), P15056 [V600E]" value_modifier== recorded_measurement=107
